assay: observed amide hydrogen exchange rate constant kobs (stretched exponential fit, FD-normalized) (s^-1); higher = faster H/D exchange (less protection); details: pH 3 (pH read); temperature: 20 °C; D2O: 88%
In this section we review reported observed amide hydrogen exchange rate constant kobs values for a set of sequences.
// response body must contain only the number

chain | reported value
DLADELALVDVIEDK | 0.00109
EAFSLFDK | 0.0018
GDGPVQGIINFEQK | 0.000693

Prompt: observed amide hydrogen exchange rate constant kobs for `FLILPDMLK` ?
Response: 0.000536

Prompt: Please report the recorded observed amide hydrogen exchange rate constant kobs for `GCITIIGGGDTATCCAK` .
Response: 0.00119

Prompt: Which observed amide hydrogen exchange rate constant kobs is listed for `SVTEQGAELSNEER` ?
Response: 0.00228

Prompt: For `CPNLTHLNLSGNK` , what is its reported observed amide hydrogen exchange rate constant kobs?
Response: 0.00139

Prompt: Which value of observed amide hydrogen exchange rate constant kobs has been reported for `GGGQIIPTAR` in the records?
Response: 0.000898

Prompt: Value lookup for observed amide hydrogen exchange rate constant kobs; key = `AVFPSIVGRPR`
Response: 0.000833

Prompt: What value of observed amide hydrogen exchange rate constant kobs has been recorded for this entry: `FSGWYDADLSPAGHEEAK`
Response: 0.00239

---

test: observed amide hydrogen exchange rate constant kobs (stretched exponential fit, FD-normalized) (s^-1); higher = faster H/D exchange (less protection); details: pH 3 (pH read); temperature: 20 °C; D2O: 88%
Rule: observed amide hydrogen exchange rate constant kobs of 0.001 or more gives label 1; anything lower gives label 0.

Prompt: Please check the record `IIAPPERK` and state if its observed amide hydrogen exchange rate constant kobs is at or above 0.001.
Response: label 1

Prompt: Dear colleague, could you confirm whether `PLRLPLQDVYK` has observed amide hydrogen exchange rate constant kobs at or above 0.001?
Response: label 0

Prompt: // inclusive: observed amide hydrogen exchange rate constant kobs at least 0.001? input: `EVFSMAGVVVR`
Response: label 1

Prompt: Exam item: decide whether the reported observed amide hydrogen exchange rate constant kobs for `EFEPLLNWMK` is at least 0.001.
Response: label 0

Prompt: Would you say `QSLGELIGTLNAAK` shows observed amide hydrogen exchange rate constant kobs at minimum 0.001?
Response: label 0

Prompt: Check this substance for observed amide hydrogen exchange rate constant kobs at or above 0.001: `GIVDQSQQAYQEAFEISK`
Response: label 0

Prompt: Has `VDQIIMAK` a recorded observed amide hydrogen exchange rate constant kobs greater than or equal to 0.001?
Response: label 1

Prompt: Assess whether reported observed amide hydrogen exchange rate constant kobs for `QHYIDLK` sits at 0.001 or higher.
Response: label 1

Prompt: Please tell me: is the substance `ELISNSSDALDK` at or over 0.001 in terms of observed amide hydrogen exchange rate constant kobs?
Response: label 1

Prompt: # bool: observed amide hydrogen exchange rate constant kobs of `LDNLVAILDINR` >= 0.001
Response: label 0

Prompt: Form field: observed amide hydrogen exchange rate constant kobs at least 0.001? Entry: `GVNLPGAAVDLPAVSEK`
Response: label 1

---

assay: observed amide hydrogen exchange rate constant kobs (stretched exponential fit, FD-normalized) (s^-1); higher = faster H/D exchange (less protection); conditions: pH 3 (pH read); temperature: 20 °C; D2O: 88%
Everything with observed amide hydrogen exchange rate constant kobs lower than 0.0009 is false (0); everything else, including exactly 0.0009, is true (1).

Would you please look over these solved cases?
substance | assigned class
IGAEVYHNLK | true (1)
AIVAIENPADVSVISSR | true (1)
FSELTAEK | true (1)

Prompt: Hi, just wondering whether `EILVGDVGQTVDDPYATFVK` shows observed amide hydrogen exchange rate constant kobs of 0.0009 or higher.
Response: true (1)

Prompt: Item `GYISPYFINTSK` with observed amide hydrogen exchange rate constant kobs of 0.0009 or above?
Response: false (0)

Prompt: Is observed amide hydrogen exchange rate constant kobs for `GFGFILFK` at or above 0.0009?
Response: false (0)

---

assay: observed amide hydrogen exchange rate constant kobs (stretched exponential fit, FD-normalized) (s^-1); higher = faster H/D exchange (less protection); details: pH 3 (pH read); temperature: 20 °C; D2O: 88%
Catalogue of observed amide hydrogen exchange rate constant kobs values
Could you respond with only the numeric value?

Please review the following examples before continuing.
chain | reported value
ILDSVGIEADDDRLNK | 0.0024
IMATPEQVGK | 0.000917
LAMQEFMILPVGAANFR | 0.000775

Prompt: Reported observed amide hydrogen exchange rate constant kobs, sequence `TVTNAVVTVPAYFNDSQR` : ____
Response: 0.000806

Prompt: Using the record for `LLQDFFNGK` , report its observed amide hydrogen exchange rate constant kobs.
Response: 0.00068

---

experiment: observed amide hydrogen exchange rate constant kobs (stretched exponential fit, FD-normalized) (s^-1); higher = faster H/D exchange (less protection); conditions: pH 3 (pH read); temperature: 20 °C; D2O: 88%
In this section we review reported observed amide hydrogen exchange rate constant kobs values for a set of substances.

substance | reported value
TAFDEAIAELDTLNEDSYK | 0.00156

Prompt: Request the reported observed amide hydrogen exchange rate constant kobs associated with `STAGDTHLGGEDFDNR`
Response: 0.00417

Prompt: Report observed amide hydrogen exchange rate constant kobs for `TIGGGDDSFNTFFSETGAGK` please.
Response: 0.00246

Prompt: // query observed amide hydrogen exchange rate constant kobs value for entry `LMGLEALK`
Response: 0.000548

Prompt: Param item = `GYSFTTTAER` ; retrieve measured observed amide hydrogen exchange rate constant kobs.
Response: 0.00184

Prompt: observed amide hydrogen exchange rate constant kobs lookup needed for `AVTEQGAELSNEER` , thanks.
Response: 0.00216

Prompt: I'd like to know its observed amide hydrogen exchange rate constant kobs. The substance in question is `RGILTLK`
Response: 0.000691

Prompt: Endpoint output: observed amide hydrogen exchange rate constant kobs of `AGKPVICATQMLESMIK` . Value?
Response: 0.00088

Prompt: // lookup observed amide hydrogen exchange rate constant kobs for `DYNVTANSK`
Response: 0.00116

Prompt: Given the entry `AMGIMNSFVNDIFER` , report its measured observed amide hydrogen exchange rate constant kobs.
Response: 0.00109

Prompt: Query: observed amide hydrogen exchange rate constant kobs; subject: `NLPLPPPPPPR`
Response: 0.00144

Prompt: Data request, read-out observed amide hydrogen exchange rate constant kobs, for `LRQPFFQK`
Response: 0.00093

Prompt: Which observed amide hydrogen exchange rate constant kobs value is on record for `SQIHDIVLVGGSTR` ?
Response: 0.00136

Prompt: What does the data say about its observed amide hydrogen exchange rate constant kobs? Entry: `GHYTEGAELVDSVLDVVRK`
Response: 0.00131

Prompt: Can you share its observed amide hydrogen exchange rate constant kobs? I mean this substance: `LGIHEDSTNR`
Response: 0.00441

Prompt: Query (substance): `LVIEEAER` ; field requested: observed amide hydrogen exchange rate constant kobs
Response: 0.00116

Prompt: Consider the substance `SFYPEEVSSMVLTK` and give its measured observed amide hydrogen exchange rate constant kobs.
Response: 0.000867

---

Recorded observed amide hydrogen exchange rate constant kobs values for a group of substances are listed next.
assay: observed amide hydrogen exchange rate constant kobs (stretched exponential fit, FD-normalized) (s^-1); higher = faster H/D exchange (less protection); settings: pH 3 (pH read); temperature: 20 °C; D2O: 88%
Keep it simple and answer with nothing but the number.

Check out these entries, answers already filled in.
substance | reported value
LVILANNCPALR | 0.00112
VPSLVGSFIR | 0.000779
VIPELNGK | 0.00159
NPPGFAFVEFEDPRDAADAVR | 0.00134
LGEMWNNTAADDKQPYEK | 0.00171

Prompt: Fill in: observed amide hydrogen exchange rate constant kobs of `VEGTEPTTAFNLFVGNLNFNK` is ___
Response: 0.000826

Prompt: Reported observed amide hydrogen exchange rate constant kobs for `VTLATLK` : what is it?
Response: 0.000759

---

experiment: observed amide hydrogen exchange rate constant kobs (stretched exponential fit, FD-normalized) (s^-1); higher = faster H/D exchange (less protection); conditions: pH 3 (pH read); temperature: 20 °C; D2O: 88%
property: observed amide hydrogen exchange rate constant kobs
Response field accepts a number only; no unit should be typed.

Worked cases, answers included:
substance | reported value
RGLEVNK | 0.00164
LLGELLQDNAK | 0.000855

Prompt: Query: observed amide hydrogen exchange rate constant kobs; subject: `YAFVNWINK`
Response: 0.00131

Prompt: # observed amide hydrogen exchange rate constant kobs lookup, item `ATFMVGSYGPRPEEYEFLTPVEEAPK`
Response: 0.00103

Prompt: // observed amide hydrogen exchange rate constant kobs lookup, key: `LVINGNPITIFQERDPSK`
Response: 0.000923

Prompt: Tell me the measured observed amide hydrogen exchange rate constant kobs of `LIINSLYK` , please.
Response: 0.00064

Prompt: Would you kindly share the measured observed amide hydrogen exchange rate constant kobs for `GILAADESTGSIAK` ?
Response: 0.00166

Prompt: Please look up its observed amide hydrogen exchange rate constant kobs: `DLSLEEIQK`
Response: 0.00108

Prompt: Recorded observed amide hydrogen exchange rate constant kobs for `ALPGQLKPFETLLSQNQGGK` , please?
Response: 0.0011

Prompt: What value of observed amide hydrogen exchange rate constant kobs has been reported for the following substance? `DQVANSAFVER`
Response: 0.00108

Prompt: Which measured observed amide hydrogen exchange rate constant kobs value corresponds to `VLATVTKPVGGDK` ?
Response: 0.000932

Prompt: Fill blank: measured observed amide hydrogen exchange rate constant kobs of the substance `DRPFFAGLVK` is ____.
Response: 0.000655

Prompt: // query observed amide hydrogen exchange rate constant kobs value for entry `VLLPEYGGTK`
Response: 0.00144

Prompt: # query: observed amide hydrogen exchange rate constant kobs of entry `YALYDATYETK`
Response: 0.00134

Prompt: For the substance `EVLAGR` , what observed amide hydrogen exchange rate constant kobs is on record?
Response: 0.00244

Prompt: Quick one: observed amide hydrogen exchange rate constant kobs for `ESYSVYVYK` ?
Response: 0.000648

Prompt: For the substance shown here, `RVLIAAHGNSLR` , give the reported observed amide hydrogen exchange rate constant kobs.
Response: 0.00149

Prompt: Any idea what its observed amide hydrogen exchange rate constant kobs is? The substance is `VMLGETNPADSKPGTIR`
Response: 0.00166

Prompt: Looking for the measured observed amide hydrogen exchange rate constant kobs of `RAAEDDEDDDVDTKK` , can you help?
Response: 0.0039
